# Test system: Jurkat
# method: mean cell size (FSC-A) relative to DMSO control (fraction of control); higher = larger cells
# reported_conditions: 48 h
Counter-ions that a name gives are not always drawn.

compound	mean cell size
CCCCCCCCc1ccc(CCC(N)(CO)CO)cc1 [Fingolimod] (concentration: 25 µM)	1.03
O=C(N[C@H](CO)[C@H](O)c1ccc([N+](=O)[O-])cc1)C(Cl)Cl [Chloramphenicol] (concentration: 25 µM)	0.949
COC(=O)C1=C(C)NC(C)=C(C(=O)OC)C1c1ccccc1[N+](=O)[O-] [Nifedipine] (concentration: 2.5 µM)	1.02
CNCCCC12CCC(c3ccccc31)c1ccccc12 [Maprotiline·HCl] (concentration: 2.5 µM)	0.991
OCCN(CCO)c1nc(N2CCCCC2)c2nc(N(CCO)CCO)nc(N3CCCCC3)c2n1 [Dipyridamole] (concentration: 25 µM)	0.954
Clc1ccc2c(c1)C(N1CCNCC1)=Nc1ccccc1O2 [Amoxapine] (concentration: 25 µM)	1.03
CC1=C(C(=O)O)N2C(=O)[C@@H](NC(=O)[C@H](N)c3ccccc3)[C@H]2SC1 [Cephalexin Monohydrate] (concentration: 25 µM)	0.987
Clc1ccc2c(c1)CCc1cccnc1C2=C1CCNCC1 [Desloratadine] (concentration: 25 µM)	1
NCCS [Cysteamine·HCl] (concentration: 25 µM)	0.957
Nc1ncn([C@H]2C[C@H](O)[C@@H](CO)O2)c(=O)n1 [Decitabine] (concentration: 2.5 µM)	1
CC(=O)S[C@@H]1CC2=CC(=O)CC[C@]2(C)[C@H]2CC[C@@]3(C)[C@@H](CC[C@@]34CCC(=O)O4)[C@H]12 [Spironolactone] (concentration: 25 µM)	1.01
O=C(CCCCCCC(=O)Nc1ccccc1)NO [Vorinostat] (concentration: 250 nM)	0.947
Cc1nc(-c2ccc(OCC(C)C)c(C#N)c2)sc1C(=O)O [Febuxostat] (concentration: 25 µM)	1
C[C@@H](O)[C@H]1C(=O)N2C(C(=O)O)=C(S[C@@H]3CN[C@H](CNS(N)(=O)=O)C3)[C@H](C)[C@H]12 [Doripenem] (concentration: 25 µM)	0.94
N[C@@H](Cc1cc(I)c(Oc2ccc(O)c(I)c2)c(I)c1)C(=O)O [Liothyronine·Na] (concentration: 25 µM)	0.966
CCOC(=O)C1=C[C@@H](OC(CC)CC)[C@H](NC(C)=O)[C@@H](N)C1 [Oseltamivir Phosphate] (concentration: 25 µM)	0.932
O=c1n(CCCN2CCN(c3cccc(Cl)c3)CC2)nc2ccccn12 [Trazodone·HCl] (concentration: 25 µM)	0.967
C[C@]12CCC(=O)C=C1[C@@H]1C[C@@H]1[C@H]1[C@@H]3[C@@H]4C[C@@H]4[C@@]4(CCC(=O)O4)[C@@]3(C)CC[C@@H]12 [Drospirenone] (concentration: 25 µM)	0.962
CN1CCN2c3ncccc3Cc3ccccc3C2C1 (stereo not drawn) [Mirtazapine] (concentration: 25 µM)	0.958
OCCN1CCN(CCCN2c3ccccc3Sc3ccc(C(F)(F)F)cc32)CC1 [Fluphenazine·HCl] (concentration: 2.5 µM)	1.13
N=C(N)N/N=C/c1c(Cl)cccc1Cl [Guanabenz Acetate] (concentration: 25 µM)	0.988
COC(=O)Nc1nc2cc(C(=O)c3ccccc3)ccc2[nH]1 [Mebendazole] (concentration: 250 nM)	0.965
CCOC(=O)C1=C(COCCN)NC(C)=C(C(=O)OC)C1c1ccccc1Cl (stereo not drawn) [Amlodipine] (concentration: 25 µM)	1.06
COc1ccc2[nH]c([S+]([O-])Cc3ncc(C)c(OC)c3C)nc2c1 (stereo not drawn) [Omeprazole] (concentration: 25 µM)	0.946
COC(=O)[C@@H]1CC2=CC(=O)CC[C@]2(C)[C@@]23O[C@@H]2C[C@@]2(C)[C@@H](CC[C@@]24CCC(=O)O4)[C@H]13 [Eplerenone] (concentration: 25 µM)	1.19
C[C@]12CCC3=C4CCC(=O)C=C4CC[C@H]3[C@@H]1CC[C@@]2(O)CC#N [Dienogest] (concentration: 25 µM)	0.963
CN(C)CCc1c[nH]c2ccc(C[C@H]3COC(=O)N3)cc12 [Zolmitriptan] (concentration: 25 µM)	0.996
NCC(=O)CCC(=O)O [Aminolevulinic Acid·HCl] (concentration: 25 µM)	0.911
